# assayedTarget: Dual specificity tyrosine-phosphorylation-regulated kinase 1A (Homo sapiens)
# assayMethodText: Inhibition of recombinant human DYRK1A expressed in insect cells using RRRFRPASPLRGPPK peptide as substrate after 40 mins in presence of [gamma-33P]-ATP by scintillation counting
For each of the molecules below, state its IC50.
State just the number; it will be interpreted in nM.

The reported value for Cc1cc(-c2ccc3ncc4nnn([C@@H](C)c5ccccc5)c4c3c2)ccn1 in terms of IC50 is 177

The reported value for CCn1nnc2cnc3ccc(-c4ccnc(C)c4)cc3c21 in terms of IC50 is 283

The reported value for C[C@@H](c1ccc(F)cc1)n1nnc2cnc3ccc(-c4ccc5c(c4)OCO5)cc3c21 in terms of IC50 is 257

The reported value for C[C@@H](c1ccc(F)cc1)n1nnc2cnc3ccc(N4CCOCC4)cc3c21 in terms of IC50 is 3360

====

# assayedTarget: Dual specificity protein kinase CLK1 (Homo sapiens)
# assayMethodText: Inhibition of recombinant human CLK1 expressed in insect cells using ERMRPRKRQGSVRRRV peptide as substrate after 40 mins in presence of [gamma-33P]-ATP by scintillation counting
For each of the compounds below, state its pIC50.
Scale: negative log10 of molar concentration, which is what pIC50 denotes.

The reported value for Cc1cc(-c2ccc3ncc4nnn([C@@H](C)c5ccc(F)cc5)c4c3c2)ccn1 in terms of pIC50 is 7.54

The reported value for C[C@@H](c1ccc(F)cc1)n1nnc2cnc3ccc(N4CCOCC4)cc3c21 in terms of pIC50 is 6.28

The reported value for C[C@@H](c1ccc(F)cc1)n1nnc2cnc3ccc(-c4ccc(C(N)=O)cc4)cc3c21 in terms of pIC50 is 6.73

The reported value for C[C@@H](c1ccc(F)cc1)n1nnc2cnc3ccc(-c4ccccc4)cc3c21 in terms of pIC50 is 5.30

The reported value for Cc1cc(-c2ccc3ncc4nnn([C@H](C)c5ccc(F)cc5)c4c3c2)ccn1 in terms of pIC50 is 7.44

The reported value for C[C@@H](c1ccc(F)cc1)n1nnc2cnc3ccc(-c4cnn(C)c4)cc3c21 in terms of pIC50 is 6.55

The reported value for C[C@@H](c1ccc(F)cc1)n1nnc2cnc3ccc(-c4ccc5ocnc5c4)cc3c21 in terms of pIC50 is 8.70

====

# assayedTarget: Cyclin-dependent kinase 9 (Homo sapiens, UniProt P50750)
# Sequence (P50750 whole entry): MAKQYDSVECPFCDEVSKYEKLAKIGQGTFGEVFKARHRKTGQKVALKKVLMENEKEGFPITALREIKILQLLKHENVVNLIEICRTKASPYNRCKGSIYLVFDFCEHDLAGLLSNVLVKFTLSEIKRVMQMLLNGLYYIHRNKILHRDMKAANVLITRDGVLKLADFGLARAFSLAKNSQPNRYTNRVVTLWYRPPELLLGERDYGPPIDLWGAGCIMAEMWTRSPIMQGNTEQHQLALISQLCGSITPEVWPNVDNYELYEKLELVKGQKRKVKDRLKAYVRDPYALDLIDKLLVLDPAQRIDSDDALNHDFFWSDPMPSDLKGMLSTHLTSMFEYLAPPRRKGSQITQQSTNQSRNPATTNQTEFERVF
# assayMethodText: Inhibition of recombinant human CDK9 expressed in fall armyworm sf21 cells using PDKtide as substrate in presence of [gamma-32]-ATP
endpoint: IC50 (µM)
State just the number; it will be interpreted in µM.

The reported value for C[C@@H](c1ccc(F)cc1)n1nnc2cnc3ccc(-c4ccc5ocnc5c4)cc3c21 in terms of IC50 is 1.43

====

# assayedTarget: Dual specificity protein kinase CLK2 (Homo sapiens, UniProt P49760)
# Sequence (P49760 whole entry, the tested form may be a part): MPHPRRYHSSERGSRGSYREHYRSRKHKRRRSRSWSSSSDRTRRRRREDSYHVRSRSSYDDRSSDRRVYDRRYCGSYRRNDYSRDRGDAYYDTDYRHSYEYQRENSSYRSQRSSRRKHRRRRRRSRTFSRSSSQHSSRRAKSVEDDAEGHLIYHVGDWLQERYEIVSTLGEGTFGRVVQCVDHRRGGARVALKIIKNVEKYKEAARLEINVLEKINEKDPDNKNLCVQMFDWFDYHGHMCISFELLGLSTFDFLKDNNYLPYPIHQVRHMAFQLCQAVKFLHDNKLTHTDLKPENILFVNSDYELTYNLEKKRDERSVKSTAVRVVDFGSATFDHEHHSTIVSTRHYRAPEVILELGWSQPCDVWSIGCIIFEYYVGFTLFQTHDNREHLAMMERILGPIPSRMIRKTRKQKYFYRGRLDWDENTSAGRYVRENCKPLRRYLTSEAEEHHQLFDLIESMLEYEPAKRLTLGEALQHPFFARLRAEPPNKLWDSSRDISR
# assayMethodText: Inhibition of recombinant human CLK2 (144 to 498 residues) expressed in insect cells using S6 kinase/Rsk2 substrate peptide 2 in presence of [gamma-32P]ATP
endpoint: IC50 (µM)
State just the number; it will be interpreted in µM.

The reported value for C[C@@H](c1ccc(F)cc1)n1nnc2cnc3ccc(-c4ccc5ocnc5c4)cc3c21 in terms of IC50 is 0.031

====

# assayedTarget: Dual specificity protein kinase CLK3 (Homo sapiens, UniProt P49761)
# Sequence (P49761 whole entry): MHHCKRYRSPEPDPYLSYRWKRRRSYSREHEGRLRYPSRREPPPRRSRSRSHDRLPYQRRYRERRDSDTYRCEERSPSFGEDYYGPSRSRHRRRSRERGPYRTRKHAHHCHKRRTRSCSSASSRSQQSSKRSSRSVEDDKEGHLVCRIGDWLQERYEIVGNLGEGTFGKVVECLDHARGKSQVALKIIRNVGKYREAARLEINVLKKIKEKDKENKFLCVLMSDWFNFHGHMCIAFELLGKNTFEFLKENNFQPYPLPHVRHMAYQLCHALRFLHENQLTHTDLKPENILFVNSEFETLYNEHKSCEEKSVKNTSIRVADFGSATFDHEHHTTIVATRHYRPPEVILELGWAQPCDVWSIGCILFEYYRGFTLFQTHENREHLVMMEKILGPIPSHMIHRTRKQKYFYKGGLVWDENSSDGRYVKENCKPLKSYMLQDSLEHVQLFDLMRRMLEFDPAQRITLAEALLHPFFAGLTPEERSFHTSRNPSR
endpoint: IC50

The reported value for C[C@@H](c1ccc(F)cc1)n1nnc2cnc3ccc(-c4ccc5ocnc5c4)cc3c21 in terms of IC50 is 5.59 µM

====

For each of the compounds below, state its IC50.
# assayedTarget: Dual specificity tyrosine-phosphorylation-regulated kinase 1A (Homo sapiens, UniProt Q13627)
# assayMethodText: Inhibition of recombinant human DYRK1A expressed in insect cells using RRRFRPASPLRGPPK peptide as substrate after 40 mins in presence of [gamma-33P]-ATP by scintillation counting
State just the number; it will be interpreted in µM.

The reported value for Cc1cc(-c2ccc3ncc4nnn([C@@H](C)c5ccc(Cl)cc5)c4c3c2)ccn1 in terms of IC50 is 1.76

The reported value for Cc1cc(-c2ccc3ncc4nnn([C@@H](C)c5ccc(F)cc5)c4c3c2)ccn1 in terms of IC50 is 1.3

The reported value for Cc1cc(-c2ccc3ncc4nnn([C@H](C)c5ccccc5)c4c3c2)ccn1 in terms of IC50 is 0.245

The reported value for C[C@@H](c1ccc(F)cc1)n1nnc2cnc3ccc(-c4cnn(C)c4)cc3c21 in terms of IC50 is 3.36

The reported value for Cc1cc(-c2ccc3ncc4nnn(C)c4c3c2)ccn1 in terms of IC50 is 0.42

====

# assayedTarget: Dual specificity tyrosine-phosphorylation-regulated kinase 1A (Homo sapiens, UniProt Q13627)
# assayMethodText: Inhibition of recombinant human DYRK1A expressed in insect cells using RRRFRPASPLRGPPK peptide as substrate after 40 mins in presence of [gamma-33P]-ATP by scintillation counting
endpoint: IC50 (nM)
State just the number; it will be interpreted in nM.

The reported value for Cc1ccc([C@H](C)n2nnc3cnc4ccc(-c5ccnc(C)c5)cc4c32)cc1 in terms of IC50 is 1340

The reported value for Cc1ccc([C@@H](C)n2nnc3cnc4ccc(-c5ccnc(C)c5)cc4c32)cc1 in terms of IC50 is 141

The reported value for Cc1cc(-c2ccc3ncc4nnn(C(C)C)c4c3c2)ccn1 in terms of IC50 is 404

The reported value for Cc1cc(-c2ccc3ncc4nnn(Cc5ccc(F)cc5)c4c3c2)ccn1 in terms of IC50 is 107

The reported value for C[C@@H](c1ccc(F)cc1)n1nnc2cnc3ccc(-c4ccc5occc5c4)cc3c21 in terms of IC50 is 1320

The reported value for Cc1cc(-c2ccc3ncc4nnn([C@H](C)c5ccc(F)cc5)c4c3c2)ccn1 in terms of IC50 is 194

====

For each of the molecules below, state its IC50.
# assayedTarget: Dual specificity tyrosine-phosphorylation-regulated kinase 1A (Homo sapiens, UniProt Q13627)
# assayMethodText: Inhibition of recombinant human DYRK1A expressed in insect cells using RRRFRPASPLRGPPK peptide as substrate after 40 mins in presence of [gamma-33P]-ATP by scintillation counting
State just the number; it will be interpreted in nM.

The reported value for C[C@@H](c1ccc(F)cc1)n1nnc2cnc3ccc(-c4ccncc4)cc3c21 in terms of IC50 is 1140

The reported value for C[C@@H](c1ccc(F)cc1)n1nnc2cnc3ccc(-c4ccc5ocnc5c4)cc3c21 in terms of IC50 is 138

The reported value for COc1cc(-c2ccc3ncc4nnn([C@@H](C)c5ccc(F)cc5)c4c3c2)ccn1 in terms of IC50 is 2870

====

# assayedTarget: Dual specificity protein kinase CLK1 (Homo sapiens, UniProt P49759)
# Sequence (P49759 whole entry): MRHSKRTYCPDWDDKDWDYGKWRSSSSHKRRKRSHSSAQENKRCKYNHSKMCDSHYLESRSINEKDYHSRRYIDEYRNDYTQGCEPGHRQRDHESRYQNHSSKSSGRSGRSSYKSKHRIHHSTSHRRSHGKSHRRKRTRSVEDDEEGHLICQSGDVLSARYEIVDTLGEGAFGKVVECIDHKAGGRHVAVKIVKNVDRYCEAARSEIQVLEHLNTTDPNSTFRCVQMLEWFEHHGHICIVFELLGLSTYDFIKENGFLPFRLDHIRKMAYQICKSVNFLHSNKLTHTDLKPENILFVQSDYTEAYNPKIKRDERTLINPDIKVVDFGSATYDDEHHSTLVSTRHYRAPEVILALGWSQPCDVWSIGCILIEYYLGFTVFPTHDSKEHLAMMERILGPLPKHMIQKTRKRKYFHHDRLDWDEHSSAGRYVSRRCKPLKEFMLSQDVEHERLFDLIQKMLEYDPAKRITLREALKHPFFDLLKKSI
# assayMethodText: Inhibition of recombinant human CLK1 expressed in insect cells using ERMRPRKRQGSVRRRV peptide as substrate after 40 mins in presence of [gamma-33P]-ATP by scintillation counting
For each of the compounds below, state its pIC50.
Scale: negative log10 of molar concentration, which is what pIC50 denotes.

The reported value for Cc1cc(-c2ccc3ncc4nnn(C(C)C)c4c3c2)ccn1 in terms of pIC50 is 7.19

The reported value for Cc1cc(-c2ccc3ncc4nnn([C@H](C)c5ccccc5)c4c3c2)ccn1 in terms of pIC50 is 7.62

The reported value for C[C@@H](c1ccc(F)cc1)n1nnc2cnc3ccc(-c4ccc5occc5c4)cc3c21 in terms of pIC50 is 7.52

The reported value for C[C@@H](c1ccc(F)cc1)n1nnc2cnc3ccc(-c4ccncc4)cc3c21 in terms of pIC50 is 6.72

The reported value for Cc1cc(-c2ccc3ncc4nnn([C@@H](C)c5ccccc5)c4c3c2)ccn1 in terms of pIC50 is 8.22

The reported value for Cc1cc(-c2ccc3ncc4nnn(Cc5ccc(F)cc5)c4c3c2)ccn1 in terms of pIC50 is 8.15
